pIC50 overview
Target: AKT3 (Homo sapiens, UniProt Q9Y243)
Sequence (Q9Y243 whole entry): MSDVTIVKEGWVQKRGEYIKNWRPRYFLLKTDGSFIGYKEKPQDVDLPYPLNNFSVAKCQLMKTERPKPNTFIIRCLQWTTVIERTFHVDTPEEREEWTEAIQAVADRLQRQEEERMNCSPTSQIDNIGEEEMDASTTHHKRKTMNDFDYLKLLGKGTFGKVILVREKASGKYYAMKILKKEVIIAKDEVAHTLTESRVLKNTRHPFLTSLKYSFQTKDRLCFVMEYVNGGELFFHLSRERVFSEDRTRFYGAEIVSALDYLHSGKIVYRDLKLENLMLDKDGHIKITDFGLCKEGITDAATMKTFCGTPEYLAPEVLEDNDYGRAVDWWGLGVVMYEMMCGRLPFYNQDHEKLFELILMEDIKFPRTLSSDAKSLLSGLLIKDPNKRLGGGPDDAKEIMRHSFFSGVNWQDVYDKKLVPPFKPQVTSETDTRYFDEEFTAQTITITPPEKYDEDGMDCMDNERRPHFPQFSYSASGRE
Test: AKT Kinase Assay (IMAP fluorescent polarisation) vs AKT3
Settings: activated AKT3, FAM Crosstide substrate
pIC50: −log10 of the molar value. Where a name gives a salt, the structure may show the parent alone.

{"compound": "Cn1c(N2CCOCC2)nc2oc(-c3ccc(C4(N)CCC4)cc3)c(-c3ccccc3)c2c1=O", "readout label": "pIC50", "reported": "5.00 to 6.00"}
{"compound": "Cn1nccc1-c1cnc2oc(-c3ccc(C4(N)CCC4)cc3)c(-c3ccccc3)c2n1", "readout label": "pIC50", "reported": "< 5.00"}
{"compound": "CSc1nc2oc(-c3ccc(C4(N)CCC4)cc3)c(-c3ccccc3)c2c(=O)n1CC#N", "readout label": "pIC50", "reported": "5.00 to 6.00"}
{"compound": "N#Cc1cccc2c(-c3ccccc3)c(-c3ccc(C4(N)CNC4)cc3)oc12", "readout label": "pIC50", "reported": "< 5.00"}
{"compound": "CNc1nc2oc(-c3ccc(C4(N)CCC4)cc3)c(-c3ccccc3)c2c(=O)n1CC(F)(F)F", "readout label": "pIC50", "reported": "5.00 to 6.00"}

stdin: // lookup pIC50 for `Cn1c(N2CC(O)C2)nc2oc(-c3ccc(C4(N)CCC4)cc3)c(-c3ccccc3)c2c1=O`
stdout: 5.00 to 6.00

stdin: // lookup pIC50 for `COc1nc(N2CC(CN)C2)nc2oc(-c3ccc(C4(N)CCC4)cc3)c(-c3ccccc3)c12`
stdout: 5.00 to 6.00

stdin: // lookup pIC50 for `NC1(c2ccc(-c3oc4nc(NCCO)[nH]c(=O)c4c3-c3ccccc3)cc2)CCC1`
stdout: 5.00 to 6.00

stdin: // lookup pIC50 for `Cn1cnc2oc(-c3ccc(C4(N)CCC4)cc3)c(-c3ccccc3)c2c1=O`
stdout: < 5.00

stdin: // lookup pIC50 for `NC1(c2ccc(-c3oc4ncc(Cl)nc4c3-c3ccccc3)cc2)CCC1`
stdout: < 5.00

stdin: // lookup pIC50 for CNC(=O)CNc1nc2oc(-c3ccc(C4(N)CCC4)cc3)c(-c3ccccc3)c2c(=O)n1C [Example 60, hydrochloride]
stdout: < 5.00

stdin: // lookup pIC50 for `CNc1nc(OC)c2c(-c3ccccc3)c(-c3ccc(C4(N)CCC4)cc3)oc2n1`
stdout: < 5.00

stdin: // lookup pIC50 for CNc1nc2oc(-c3ccc(C4(N)CCC4)cc3)c(-c3ccccc3)c2c(=O)n1C [Example 65, hydrochloride]
stdout: 5.00 to 6.00

stdin: // lookup pIC50 for `NC1(c2ccc(-c3oc4ncc(-c5ccccn5)nc4c3-c3ccccc3)cc2)CCC1`
stdout: < 5.00

stdin: // lookup pIC50 for `Cn1cc(-c2cncnc2)c2oc(-c3ccc(C4(N)CCC4)cc3)c(-c3ccccc3)c2c1=O`
stdout: < 5.00

stdin: // lookup pIC50 for `NC1(c2ccc(-c3oc4ccccc4c(=O)c3-c3ccccc3)cc2)CCC1`
stdout: < 5.00

====

Molecular target: AKT3 (Homo sapiens)
Test: AKT Kinase Assay (IMAP fluorescent polarisation) vs AKT3
Details: activated AKT3, FAM Crosstide substrate
Where a name gives a salt, the structure may show the parent alone.
readout label: IC50

Worked examples, 3 molecules total:
{"molecule": "NC1(c2ccc(-c3oc4ncc(NCCO)nc4c3-c3ccccc3)cc2)CCC1 [Example 148]", "readout label": "IC50", "reported": "> 10 µM"}
{"molecule": "NC1(c2ccc(-c3oc4ncn(CC(F)F)c(=O)c4c3-c3ccccc3)cc2)CCC1 [Example 108]", "readout label": "IC50", "reported": "1 to 10 µM"}
{"molecule": "Cn1cc(-c2cnc3oc(-c4ccc(C5(N)CCC5)cc4)c(-c4ccccc4)c3n2)cn1 [Example 136]", "readout label": "IC50", "reported": "> 10 µM"}

stdin: // fetch AKT3 (Homo sapiens) IC50 for NC1(c2ccc(-c3oc4ncc(C5CC5)nc4c3-c3ccccc3)cc2)CCC1 [Example 138]
stdout: 1 to 10 µM

stdin: // fetch AKT3 (Homo sapiens) IC50 for Cn1c(NCCO)nc2oc(-c3ccc(C4(N)CCC4)cc3)c(-c3ccccc3)c2c1=O [Example 64, hydrochloride]
stdout: 1 to 10 µM

stdin: // fetch AKT3 (Homo sapiens) IC50 for COc1ncc(Br)c2oc(-c3ccc(C4(N)CCC4)cc3)c(-c3ccccc3)c12 [Example 80]
stdout: > 10 µM

stdin: // fetch AKT3 (Homo sapiens) IC50 for NC1(c2ccc(-c3oc4nc(N5CCNCC5)ncc4c3-c3ccccc3)cc2)CCC1 [Example 53]
stdout: > 10 µM

stdin: // fetch AKT3 (Homo sapiens) IC50 for COc1nc(N)nc2oc(-c3ccc(C4(N)CCC4)cc3)c(-c3ccccc3)c12 [Example 31]
stdout: > 10 µM
